- EXPERIMENTAL_CONDITIONS: in water, 308.15 K
ASSAY_ENDPOINT: solubility (mole fraction)
One number for each entry.

Look at this molecule and give its reported solubility (mole fraction). CCOC(=O)C1(c2ccccc2)CCN(CCC(C#N)(c2ccccc2)c2ccccc2)CC1 1.96e-05

###

- EXPERIMENTAL_CONDITIONS: in acetonitrile, 298.15 K
ASSAY_ENDPOINT: solubility (mole fraction)
Numbers only.

Look at this compound and give its reported solubility (mole fraction). CCOC(=O)C1(c2ccccc2)CCN(CCC(C#N)(c2ccccc2)c2ccccc2)CC1 0.005

###

- EXPERIMENTAL_CONDITIONS: in water, 293.15 K
ASSAY_ENDPOINT: solubility (mole fraction)
One number for each entry.

Look at this compound and give its reported solubility (mole fraction). CCOC(=O)C1(c2ccccc2)CCN(CCC(C#N)(c2ccccc2)c2ccccc2)CC1 8.6e-06

Where do the numbers come from? From BigSolDB 2.1.
